Target: Avi-KRAS G12D (1-169) GppNHp/RAF1 RBD-3xFLAG (52-151) (Homo sapiens, UniProt P01116, G12D)
Construct: Avi-KRAS G12D (1-169)
Sequence (P01116 1-169 isoform P01116-2 G12D): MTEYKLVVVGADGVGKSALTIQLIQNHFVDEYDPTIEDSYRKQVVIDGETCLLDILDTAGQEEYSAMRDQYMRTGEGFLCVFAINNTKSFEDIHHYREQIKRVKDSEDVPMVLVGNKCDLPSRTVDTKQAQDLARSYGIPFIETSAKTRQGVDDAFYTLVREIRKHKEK
Test: Raf1-KRAS G12D-GppNHP disruption HTRF assay (Biological Example 1)
Assay type: binding
Settings: KRAS G12D, GppNHp-loaded; class symbols
Protocol: A protein:protein interaction (PPI) Homogeneous Time Resolved Fluorescence (HTRF) assay was used to determine the effectiveness of compounds of the present disclosure in disrupting KRAS protein and effector RAF1 binding. The assay buffer included: 50 mM Tris pH 7.5, 100 mM NaCl, 5 mM MgCl2, 0.1% BSA, 0.01% Tween, and 10% DMSO. The bead buffer included: 50 mM Tris pH 7.5, and 0.01% Tween 20. […] Data was reported as percentage of activity, with DMSO as 100%. Data was plotted and analyzed using Prism 8.
Below: a set of entries, each annotated with reported IC50.

CCN(c1nc(OC[C@@]23CCCN2C[C@H](F)C3)nc2c(F)c(-c3ccc(F)c4sc(N)c(C#N)c34)c(C(F)(F)F)cc12)[C@H]1C[C@@H](COC)N(C(=O)OC)C1 (atropisomer, axis not shown) : 0.1 to 1 µM
CCN(c1nc(OC[C@@]23CCCN2C[C@H](F)C3)nc2c(F)c(-c3ccc(F)c4sc(N)c(C#N)c34)c(C(F)(F)F)cc12)[C@H]1CCN(C(=O)N2C[C@@H](F)[C@@H](F)C2)C1 (atropisomer, axis not shown) : < 0.1 µM
CCN(c1nc(OC[C@@]23CCCN2C[C@H](F)C3)nc2c(F)c(-c3ccc(F)c4sc(N)c(C#N)c34)c(C(F)(F)F)cc12)[C@H]1CCN(C(=O)[C@H]2CCO2)C1 (atropisomer, axis not shown) : < 0.1 µM
CCN(c1nc(OC[C@@]23CCCN2C[C@H](F)C3)nc2c(F)c(-c3ccc(F)c4sc(N)c(C#N)c34)c(C(F)(F)F)cc12)[C@H]1CCN(C(=O)OC2CC(F)C2)C1 (some centres unmarked) [Compound 787] : < 0.1 µM
CCN(c1nc(OC[C@@]23CCCN2C[C@H](F)C3)nc2c(F)c(-c3ccc(F)c4sc(N)c(C#N)c34)c(C(F)(F)F)cc12)[C@H]1CCN(C(=O)OCC2CC2)C1 (atropisomer, axis not shown) : < 0.1 µM
CCN(c1nc(OC[C@@]23CCCN2C[C@H](F)C3)nc2c(F)c(-c3ccc(F)c4sc(N)c(C#N)c34)c(C(F)(F)F)cc12)[C@H]1CCN(C(=O)c2cn(C)nn2)C1 (atropisomer, axis not shown) : < 0.1 µM

CCN(c1nc(OC[C@@]23CCCN2C[C@H](F)C3)nc2c(F)c(-c3ccc(F)c4sc(N)c(C#N)c34)c(C(F)(F)F)cc12)[C@H]1CCN(C(=O)OC)[C@@H]1C (atropisomer, axis not shown) has a reported IC50 of < 0.1 µM

CN(C)C(=O)N1CC[C@H]2[C@@H]1CN2c1nc(OC[C@@]23CCCN2C[C@H](F)C3)nc2c(F)c(-c3ccc(F)c4sc(N)c(C#N)c34)c(C(F)(F)F)cc12 (atropisomer, axis not shown) has a reported IC50 of 1 to 10 µM

CCN(c1nc(OC[C@@]23CCCN2C[C@H](F)C3)nc2c(F)c(-c3ccc(F)c4sc(N)c(C#N)c34)c(C(F)(F)F)cc12)[C@H]1CCN(C(=O)c2ncco2)C1 (atropisomer, axis not shown) has a reported IC50 of < 0.1 µM

CCN(c1nc(OC[C@@]23CCCN2C[C@H](F)C3)nc2c(F)c(-c3ccc(F)c4sc(N)c(C#N)c34)c(C(F)(F)F)cc12)[C@H]1CCN(C(=O)O[C@@H]2CCOC2)C1 (atropisomer, axis not shown) has a reported IC50 of < 0.1 µM

CCc1c(C(=O)N(C)C)nn2c1CN(c1nc(OCC34CCCN3CC(F)C4)nc3c(F)c(-c4ccc(F)c5sc(N)c(C#N)c45)c(C(F)(F)F)cc13)CC2 (centres unmarked) has a reported IC50 of 0.1 to 1 µM
